Target: T1, Human CXCR2 (Homo sapiens, UniProt P25025)
T1 sequence (P25025 1-360): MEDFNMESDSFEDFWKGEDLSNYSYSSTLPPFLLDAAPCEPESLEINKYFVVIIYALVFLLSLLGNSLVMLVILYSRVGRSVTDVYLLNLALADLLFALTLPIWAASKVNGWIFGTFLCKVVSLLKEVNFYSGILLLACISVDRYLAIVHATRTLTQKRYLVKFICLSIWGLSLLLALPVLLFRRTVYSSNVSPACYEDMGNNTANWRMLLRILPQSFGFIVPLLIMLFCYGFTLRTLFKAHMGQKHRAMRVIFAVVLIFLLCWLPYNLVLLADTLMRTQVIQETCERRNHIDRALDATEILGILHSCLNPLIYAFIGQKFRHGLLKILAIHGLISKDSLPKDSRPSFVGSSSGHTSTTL
Test: cELISA of hybridoma supernatants on cells transfected with human CXCR2
Format: binding
Parameters: host or cells: Expi293F cells, vector pTT5
Settings: hybridoma supernatant; fluorescence units relative to positive control (100%)
Kindly state Human CXCR2 % Positive for each of the entries shown.
Numbers only, in %.

Completed entries (count: 2):
molecule	Human CXCR2 % Positive (%)
BKO-1B10: VH SEQ ID NO: 3, VL SEQ ID NO: 4 (antibody, V domains shown, BKO_1B10_VH; BKO_1B10_VL) VH: QLQLQESGPGLVKPSETLSLTCTVSGGSIRTSSYYWGWIRQPPGKGLEYIGSIYYSGTTYYNPSLKSRVTMSVDTSKNQFSLKLSSVTAADTAVYYCARHGRVREVPPFDYWGQGTLVTVSS VL: SSELTQDPAVSVALGQTVRITCQGDSLRYYYASWYQQKPGQAPVLVIYDENSRPSGIPDRFSGSSSGNTASLRITGTQAEDEADYYCNSRDTSGNHWAFGGGTKLTVL	75
BKO-4A8: parental anti-CXCR2 antibody, VH SEQ ID NO: 17, VL SEQ ID NO: 18 (antibody, V domains shown, BKO_4A8_VH; BKO_4A8_VL) VH: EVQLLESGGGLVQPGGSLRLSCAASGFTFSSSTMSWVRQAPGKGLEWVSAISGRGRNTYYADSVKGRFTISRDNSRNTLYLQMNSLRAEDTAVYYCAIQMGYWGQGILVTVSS VL: QSALTQPPSASGSPGQSVTISCIGTSSDVGGYNYVSWYQQHPDKAPKLMIYEVNKRPSGVPDRFSGSKSGNTASLTVSGLQAEDEADYYCSSYAGNNNFGVFGGGTKLTVL	110

Could you share which Human CXCR2 % Positive value was measured for BKO-2D8: VH SEQ ID NO: 9, VL SEQ ID NO: 10 (antibody, V domains shown, BKO_2D8_VH; BKO_2D8_VL) VH: EVQLLESGGGLVQPGGSLRLSCAASGYTFTSSTMSWVRQAPGKGLEWVTAISGRGGRTYYADSVKGRFTISRDNSKNTLYLQMNSLRAEDTAVYYCAIQLGNWGQGILVTVSS VL: QSALTQPPSASGSPGQSVTISCTGTSSDIGGYNYVSWYQQHPGKAPKLVIYEVNMRPSGVPARFSGSKSGNTASLTVSGLQAEDEADYYCSSYAGNDNFGVFGGGTKLSVL ?
100
